Origin of the recorded values: paper PMC9320114

Biological target: DdlB (Escherichia coli)
Assay: Inhibition of DdlB, colorimetric malachite green method
Assay type: biochemical, bacterial
Conditions: 20 min, read-out: DdlB (RA [%])
Endpoint: remaining activity at 50 µM (%)

Compound	Endpoint	Reading Unit	Quantitative Result
CCCCc1nc2ccn(Cc3ccccc3)c(=O)c2n1Cc1ccc(-c2ccccc2-c2nnn[nH]2)cc1 [MS-ML03]	remaining activity at 50 µM	%	81
CCCCCCN(Cc1ccc(C#Cc2ccc(CCCC)cc2)cc1)C(=O)c1ccc(O)c(C(=O)O)c1 [MS-ML25]	remaining activity at 50 µM	%	114
C1=C(c2ccccc2)CCN(CCCCc2c[nH]c3ccccc23)C1 [MS-ML10]	remaining activity at 50 µM	%	96
CCCCCCN(Cc1ccc(C#Cc2ccc(CCCC)cc2)cc1)c1ccc(F)c(C(=O)O)c1 [MS-ML26]	remaining activity at 50 µM	%	114
CCCCc1nc2ccn(CC(=O)N3CCCCC3)c(=O)c2n1Cc1ccc(-c2ccccc2S(=O)(=O)NC(=O)OCc2ccccc2)cc1F [MS-ML05]	remaining activity at 50 µM	%	91
O=C(OC[C@H]1CCCN1c1ccnc2ncnn12)c1ccc(Oc2ccccc2)nc1 [MS-ML31]	remaining activity at 50 µM	%	98
Oc1ccc2[nH]cc(CCCCN3CC=C(c4ccccc4)CC3)c2c1 [MS-ML11]	remaining activity at 50 µM	%	95
CCCCCCN(Cc1ccc(C#Cc2ccc(CCCC)cc2)cc1)c1ccc(O)c(C(=O)O)c1 [MS-ML24]	remaining activity at 50 µM	%	116
O=C(Nc1ccc(Oc2ccncc2)cc1)Nc1cc(C(F)(F)F)ccc1-n1cncn1 [MS-ML80]	remaining activity at 50 µM	%	94
